Every entry's value here was drawn from patent US20240018161A1.

Biological target: CFTR-mediated short-circuit current in F508del/MF-HBE cells (Homo sapiens, UniProt P13569, DEL508-508)
Construct: human bronchial epithelial (HBE) cells derived from CF subjects; endogenous in cells; host or cells: primary human bronchial epithelial cells from CF subjects (F508del/MF-HBE)
Sequence (P13569 with tags, fused parts or gaps DEL508-508): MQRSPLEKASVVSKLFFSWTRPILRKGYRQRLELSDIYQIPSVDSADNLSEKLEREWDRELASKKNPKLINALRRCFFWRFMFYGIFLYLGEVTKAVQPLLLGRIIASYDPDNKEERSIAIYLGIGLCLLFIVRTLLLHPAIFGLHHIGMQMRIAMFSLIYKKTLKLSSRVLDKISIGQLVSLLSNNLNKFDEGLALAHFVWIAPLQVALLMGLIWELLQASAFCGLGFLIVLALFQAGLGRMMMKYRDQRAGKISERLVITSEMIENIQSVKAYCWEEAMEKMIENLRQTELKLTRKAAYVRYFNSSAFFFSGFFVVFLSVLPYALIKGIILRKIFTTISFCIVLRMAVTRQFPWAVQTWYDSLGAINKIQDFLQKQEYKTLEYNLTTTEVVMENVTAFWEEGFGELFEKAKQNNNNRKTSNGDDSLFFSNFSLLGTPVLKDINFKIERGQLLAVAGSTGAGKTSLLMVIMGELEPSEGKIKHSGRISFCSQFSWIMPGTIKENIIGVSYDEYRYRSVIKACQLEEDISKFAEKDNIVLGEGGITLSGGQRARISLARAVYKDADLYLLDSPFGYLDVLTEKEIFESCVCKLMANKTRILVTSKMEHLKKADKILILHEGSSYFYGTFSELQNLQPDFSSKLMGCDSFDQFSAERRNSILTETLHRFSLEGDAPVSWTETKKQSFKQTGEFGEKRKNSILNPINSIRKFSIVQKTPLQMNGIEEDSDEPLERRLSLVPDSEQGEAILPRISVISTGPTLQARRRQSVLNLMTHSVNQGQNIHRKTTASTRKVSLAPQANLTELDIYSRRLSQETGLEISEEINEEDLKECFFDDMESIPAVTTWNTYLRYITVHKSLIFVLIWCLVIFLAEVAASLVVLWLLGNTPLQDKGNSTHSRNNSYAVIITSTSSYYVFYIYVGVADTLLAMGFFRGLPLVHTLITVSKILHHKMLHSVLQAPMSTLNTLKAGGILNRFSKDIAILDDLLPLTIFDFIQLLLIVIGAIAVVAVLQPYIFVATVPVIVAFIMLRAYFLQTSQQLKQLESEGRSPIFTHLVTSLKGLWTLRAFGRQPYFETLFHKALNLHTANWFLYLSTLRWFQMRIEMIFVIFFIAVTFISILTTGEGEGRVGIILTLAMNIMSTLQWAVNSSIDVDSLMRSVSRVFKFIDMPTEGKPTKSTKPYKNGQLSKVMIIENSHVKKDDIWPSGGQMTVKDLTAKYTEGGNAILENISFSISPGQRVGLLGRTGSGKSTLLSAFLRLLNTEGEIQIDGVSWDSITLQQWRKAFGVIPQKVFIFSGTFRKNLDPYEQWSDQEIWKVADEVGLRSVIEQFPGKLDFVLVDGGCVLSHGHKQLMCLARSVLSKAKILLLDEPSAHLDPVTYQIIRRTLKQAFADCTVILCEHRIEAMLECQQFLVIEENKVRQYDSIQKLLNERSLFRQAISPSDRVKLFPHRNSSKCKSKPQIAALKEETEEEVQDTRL
Test: HBE assay: Ussing chamber assay of CFTR-mediated short-circuit currents
Format: cell-based
Details: F508del/MF-HBE cells, 18-24 hours incubation
molecules and their reported EC50
recorded.metric: EC50

- Cc1cccc(C)c1-c1cc2nc(n1)NS(=O)(=O)c1cccc(c1)C(=O)N1[C@@H](c3ncc(OC(C)C)cn3)CC[C@@H](C(C)C)[C@H]1CO2 (single isomer, unassigned) [Compound 388]: < 1 µM
- Cc1cccc(C)c1-c1cc2nc(n1)NS(=O)(=O)c1cccc(c1)C(=O)N1[C@@H](c3ncc(OC(C)C)cn3)CC[C@@H](C(C)C)[C@H]1CO2 (single isomer, unassigned) [Compound 389]: 1 to 3 µM
